Listed here: items and their measured zone of inhibition.
test system: Escherichia coli; test: Antibacterial activity against Escherichia coli MTCC 41 at 128 mg/ml after 16 hrs by disk diffusion test; type: functional; design: dose or concentration left out as unconfirmed; settings: MTCC 41, 16 h, read-out: IZ

Worked examples, 3 compounds total:
1. S=c1[nH]c(=S)c2c3c(sc2[nH]1)CCCC3 :: > 3 mm
2. S=c1c2c3c(sc2nc2n(-c4ccccc4)nc(-c4ccccc4)n12)CCCC3 :: > 3 mm
3. CC(=O)c1nn(-c2ccc([N+](=O)[O-])cc2)c2nc3sc4c(c3c(=S)n12)CCCC4 :: > 3 mm

q: Any idea what its zone of inhibition is? The compound is CSc1nc2sc3c(c2c(=S)[nH]1)CCCCC3
a: > 3 mm

q: Any idea what its zone of inhibition is? The compound is CC(=O)OC[C@H]1O[C@@H](Sc2nc3sc4c(c3c(=S)[nH]2)CCCCC4)[C@@H](OC(C)=O)[C@@H]1OC(C)=O
a: < 1 mm

q: Any idea what its zone of inhibition is? The compound is CC(=O)OC[C@H]1O[C@@H](Sc2nc3sc4c(c3c(=S)[nH]2)CCCCC4)[C@H](OC(C)=O)[C@@H](OC(C)=O)[C@@H]1OC(C)=O
a: > 2 mm

q: Any idea what its zone of inhibition is? The compound is CC(=O)OC[C@H]1O[C@@H](Sc2nc3sc4c(c3c(=S)[nH]2)CCCC4)[C@H](OC(C)=O)[C@@H](OC(C)=O)[C@@H]1OC(C)=O
a: > 2 mm

q: Any idea what its zone of inhibition is? The compound is OC[C@H]1O[C@@H](Sc2nc3sc4c(c3c(=S)[nH]2)CCCC4)[C@@H](O)[C@@H]1O
a: > 3 mm

q: Any idea what its zone of inhibition is? The compound is OC[C@H]1O[C@@H](Sc2nc3sc4c(c3c(=S)[nH]2)CCCC4)[C@H](O)[C@@H](O)[C@@H]1O
a: < 1 mm

q: Any idea what its zone of inhibition is? The compound is S=c1[nH]c(=S)c2c3c(sc2[nH]1)CCCCC3
a: > 3 mm

q: Any idea what its zone of inhibition is? The compound is OC[C@H]1O[C@@H](Sc2nc3sc4c(c3c(=S)[nH]2)CCCCC4)[C@H](O)[C@@H](O)[C@@H]1O
a: < 1 mm

q: Any idea what its zone of inhibition is? The compound is OC[C@H]1O[C@@H](Sc2nc3sc4c(c3c(=S)[nH]2)CCCCC4)[C@@H](O)[C@@H]1O
a: > 3 mm

* * *

test system: Pseudomonas putida; test: Antibacterial activity against ampicillin-resistant Pseudomonas putida MTCC 1072 at 64 mg/ml after 16 hrs by disk diffusion test; type: functional; design: dose or concentration left out as unconfirmed; conditions: MTCC 1072, 16 h, read-out: IZ
Property Label: zone of inhibition

Worked examples, 3 molecules total:
1) CSc1nc2sc3c(c2c(=S)[nH]1)CCCC3 :: < 1 mm
2) CC1(C)S[C@@H]2[C@H](NC(=O)[C@H](N)c3ccccc3)C(=O)N2[C@H]1C(=O)O :: 0 mm
3) CC(=O)OC[C@H]1O[C@@H](Sc2nc3sc4c(c3c(=S)[nH]2)CCCCC4)[C@H](OC(C)=O)[C@@H](OC(C)=O)[C@@H]1OC(C)=O :: > 2 mm

Below: the item to evaluate.
q: Any idea what its zone of inhibition is? The molecule is OC[C@H]1O[C@@H](Sc2nc3sc4c(c3c(=S)[nH]2)CCCCC4)[C@@H](O)[C@@H]1O
a: > 2 mm

* * *

system: Pseudomonas putida; experiment: Antibacterial activity against ampicillin-resistant Pseudomonas putida MTCC 1072 at 64 mg/ml after 16 hrs by disk diffusion test; type: functional; set-up: dose or concentration left out as unconfirmed; conditions: MTCC 1072, 16 h, read-out: IZ
Property Label: zone of inhibition

1. OC[C@H]1O[C@@H](Sc2nc3sc4c(c3c(=S)[nH]2)CCCC4)[C@@H](O)[C@@H]1O :: > 3 mm
2. CSc1nc2sc3c(c2c(=S)[nH]1)CCCCC3 :: < 1 mm
3. CCOC(=O)c1nn(-c2ccc(C)cc2)c2nc3sc4c(c3c(=S)n12)CCCC4 :: < 1 mm
4. OC[C@H]1O[C@@H](Sc2nc3sc4c(c3c(=S)[nH]2)CCCCC4)[C@H](O)[C@@H](O)[C@@H]1O :: < 1 mm

q: Any idea what its zone of inhibition is? The compound is CC(=O)OC[C@H]1O[C@@H](Sc2nc3sc4c(c3c(=S)[nH]2)CCCC4)[C@@H](OC(C)=O)[C@@H]1OC(C)=O
a: < 1 mm

* * *

system: Pseudomonas putida; experiment: Antibacterial activity against ampicillin-resistant Pseudomonas putida MTCC 1072 at 64 mg/ml after 16 hrs by disk diffusion test; assay type: functional; parameters: dose or concentration left out as unconfirmed; conditions: MTCC 1072, 16 h, read-out: IZ
Property Label: zone of inhibition

Worked examples, 5 compounds total:
1. OC[C@H]1O[C@@H](Sc2nc3sc4c(c3c(=S)[nH]2)CCCC4)[C@H](O)[C@@H](O)[C@@H]1O :: < 1 mm
2. S=c1c2c3c(sc2nc2n(-c4ccccc4)nc(-c4ccccc4)n12)CCCC3 :: < 1 mm
3. S=c1[nH]c(=S)c2c3c(sc2[nH]1)CCCCC3 :: > 2 mm
4. S=c1[nH]c(=S)c2c3c(sc2[nH]1)CCCC3 :: < 1 mm
5. CC(=O)OC[C@H]1O[C@@H](Sc2nc3sc4c(c3c(=S)[nH]2)CCCCC4)[C@@H](OC(C)=O)[C@@H]1OC(C)=O :: < 1 mm

q: Which zone of inhibition is reported with Pseudomonas putida for this entry: CC(=O)c1nn(-c2ccc([N+](=O)[O-])cc2)c2nc3sc4c(c3c(=S)n12)CCCC4 ?
a: > 2 mm

q: Which zone of inhibition is reported with Pseudomonas putida for this entry: CC(=O)OC[C@H]1O[C@@H](Sc2nc3sc4c(c3c(=S)[nH]2)CCCC4)[C@H](OC(C)=O)[C@@H](OC(C)=O)[C@@H]1OC(C)=O ?
a: > 2 mm

* * *

system: Vero; assay: Cytotoxicity against african green monkey Vero cells assessed as loss of monolayer present around the plaques; type: cell-based; settings: Chlorocebus sabaeus
Listed here: items and their measured log10 IC50.
Use the decimal logarithm of IC50 (nM).

1. S=c1[nH]c(=S)c2c3c(sc2[nH]1)CCCCC3 :: 1.95
2. CSc1nc2sc3c(c2c(=S)[nH]1)CCCCC3 :: 2.65
3. S=c1[nH]c(=S)c2c3c(sc2[nH]1)CCCC3 :: 1.85
4. CC(=O)c1nn(-c2ccc(Cl)cc2)c2nc3sc4c(c3c(=S)n12)CCCCC4 :: 1.85

q: Any idea what its log10 IC50 is? The compound is CC(=O)OC[C@H]1O[C@@H](Sc2nc3sc4c(c3c(=S)[nH]2)CCCCC4)[C@@H](OC(C)=O)[C@@H]1OC(C)=O
a: 3.06

q: Any idea what its log10 IC50 is? The compound is CC(=O)OC[C@H]1O[C@@H](Sc2nc3sc4c(c3c(=S)[nH]2)CCCC4)[C@@H](OC(C)=O)[C@@H]1OC(C)=O
a: 3.14

* * *

tested on: Vero; experiment: Cytotoxicity against african green monkey Vero cells assessed as loss of monolayer present around the plaques; assay type: cell-based; conditions: Chlorocebus sabaeus
Property Label: IC50 (nM)
Write the number in nM without appending the unit.

Worked examples, 5 molecules total:
1) OC[C@H]1O[C@@H](Sc2nc3sc4c(c3c(=S)[nH]2)CCCCC4)[C@H](O)[C@@H](O)[C@H]1O :: 380
2) OC[C@H]1O[C@@H](Sc2nc3sc4c(c3c(=S)[nH]2)CCCC4)[C@H](O)[C@@H](O)[C@@H]1O :: 610
3) CC(=O)c1nn(-c2ccc(Cl)cc2)c2nc3sc4c(c3c(=S)n12)CCCC4 :: 90
4) CC(=O)OC[C@H]1O[C@@H](Sc2nc3sc4c(c3c(=S)[nH]2)CCCC4)[C@H](OC(C)=O)[C@@H](OC(C)=O)[C@@H]1OC(C)=O :: 560
5) CSc1nc2sc3c(c2c(=S)[nH]1)CCCC3 :: 640

Below: the item to evaluate.
q: Any idea what its IC50 is? The molecule is C[C@@]1(CO)[C@H](O)CC[C@@]2(C)[C@H]1CC[C@H]1C[C@@H]3C[C@@]12CC[C@]3(O)CO
a: 580

* * *

experiment: Therapeutic index, ratio of IC50 for human CEM cells to EC50 for HIV1; format: cell-based, CCRF-CEM; conditions: read-out: Ratio IC50/EC50
Property Label: selectivity ratio

1. CSc1nc2sc3c(c2c(=S)[nH]1)CCCCC3 :: > 1
2. S=c1[nH]c(=S)c2c3c(sc2[nH]1)CCCC3 :: > 15.4
3. CC(=O)OC[C@H]1O[C@@H](Sc2nc3sc4c(c3c(=S)[nH]2)CCCCC4)[C@@H](OC(C)=O)[C@@H]1OC(C)=O :: > 1

Below: the item to evaluate.
q: Any idea what its selectivity ratio is? The molecule is OC[C@H]1O[C@@H](Sc2nc3sc4c(c3c(=S)[nH]2)CCCCC4)[C@H](O)[C@@H](O)[C@H]1O
a: > 1

Values compiled from ChEMBL document CHEMBL1240504.
